# maps each entry to its IC50
Biological target: human MRGPRX2 (Homo sapiens)
Construct: expressed in transfected cells; host or cells: CHO cells, stably transfected (G418 and Hygromycin B selection)
Sequence (Q96LB1 whole entry): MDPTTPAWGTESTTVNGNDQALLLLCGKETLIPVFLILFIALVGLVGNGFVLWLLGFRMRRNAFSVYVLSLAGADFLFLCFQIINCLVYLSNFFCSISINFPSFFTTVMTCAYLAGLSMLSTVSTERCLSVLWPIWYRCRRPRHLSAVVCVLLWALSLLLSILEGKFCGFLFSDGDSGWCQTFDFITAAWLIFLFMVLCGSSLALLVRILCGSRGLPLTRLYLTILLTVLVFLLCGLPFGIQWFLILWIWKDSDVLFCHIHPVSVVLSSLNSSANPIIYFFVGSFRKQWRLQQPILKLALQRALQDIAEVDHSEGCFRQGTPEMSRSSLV
Experiment: MRGPRX2 activity: IP-One Gq HTRF assay in CHO cells, antagonism versus 0.3 uM Cortistatin-14
Type: cell-based
Settings: versus 0.3 uM Cortistatin-14 agonist, CHO cells expressing human MRGPRX2, read-out: MRGPRX2 Antagonist Activity

Answered cases to consult:
compound | obs.value
O=S1(=O)N=C(NCc2ccc(F)cc2)Nc2c1ccc(F)c2Oc1ccccc1Cl | 100 to 500 nM
CC(c1ccccc1F)c1c(F)ccc2c1NC(NCc1ccc(F)cc1F)=NS2(=O)=O (centres unmarked) | < 100 nM
CC(c1ccc(F)cc1)c1c(F)ccc2c1NC(NCc1ncccc1F)=NS2(=O)=O (single isomer, unassigned) [Compound 10-4B] | < 100 nM
N#Cc1ccc2c(c1Oc1ccccc1Cl)NC(NCc1ncccc1F)=NS2(=O)=O | < 100 nM
O=S1(=O)N=C(NCc2ncccc2F)Nc2c1ccc(F)c2Oc1ccccc1-c1ccccc1 | 1000 to 2500 nM
O=S1(=O)N=C(NCc2ncccc2F)Nc2c(Oc3ccccc3Cl)c(F)cc(F)c21 | 100 to 500 nM

QUERY: Which IC50 value belongs to COc1ccccc1C(C)c1c(F)ccc2c1NC(NCc1cccc(F)c1)=NS2(=O)=O (centres unmarked) ?
RESULT: < 100 nM

QUERY: Which IC50 value belongs to `O=S1(=O)N=C(NCc2ccccc2F)Nc2c1ccc(F)c2Oc1ccccc1Cl` ?
RESULT: < 100 nM
